# tested on: TYK2 (Homo sapiens, UniProt P29597)
# Construct: Degradation of TYK2 in cells was quantitatively measured using Meso Scale Discovery (MSD) technology; endogenous in cells; host or cells: OCI-LY10
# Sequence (P29597 whole entry): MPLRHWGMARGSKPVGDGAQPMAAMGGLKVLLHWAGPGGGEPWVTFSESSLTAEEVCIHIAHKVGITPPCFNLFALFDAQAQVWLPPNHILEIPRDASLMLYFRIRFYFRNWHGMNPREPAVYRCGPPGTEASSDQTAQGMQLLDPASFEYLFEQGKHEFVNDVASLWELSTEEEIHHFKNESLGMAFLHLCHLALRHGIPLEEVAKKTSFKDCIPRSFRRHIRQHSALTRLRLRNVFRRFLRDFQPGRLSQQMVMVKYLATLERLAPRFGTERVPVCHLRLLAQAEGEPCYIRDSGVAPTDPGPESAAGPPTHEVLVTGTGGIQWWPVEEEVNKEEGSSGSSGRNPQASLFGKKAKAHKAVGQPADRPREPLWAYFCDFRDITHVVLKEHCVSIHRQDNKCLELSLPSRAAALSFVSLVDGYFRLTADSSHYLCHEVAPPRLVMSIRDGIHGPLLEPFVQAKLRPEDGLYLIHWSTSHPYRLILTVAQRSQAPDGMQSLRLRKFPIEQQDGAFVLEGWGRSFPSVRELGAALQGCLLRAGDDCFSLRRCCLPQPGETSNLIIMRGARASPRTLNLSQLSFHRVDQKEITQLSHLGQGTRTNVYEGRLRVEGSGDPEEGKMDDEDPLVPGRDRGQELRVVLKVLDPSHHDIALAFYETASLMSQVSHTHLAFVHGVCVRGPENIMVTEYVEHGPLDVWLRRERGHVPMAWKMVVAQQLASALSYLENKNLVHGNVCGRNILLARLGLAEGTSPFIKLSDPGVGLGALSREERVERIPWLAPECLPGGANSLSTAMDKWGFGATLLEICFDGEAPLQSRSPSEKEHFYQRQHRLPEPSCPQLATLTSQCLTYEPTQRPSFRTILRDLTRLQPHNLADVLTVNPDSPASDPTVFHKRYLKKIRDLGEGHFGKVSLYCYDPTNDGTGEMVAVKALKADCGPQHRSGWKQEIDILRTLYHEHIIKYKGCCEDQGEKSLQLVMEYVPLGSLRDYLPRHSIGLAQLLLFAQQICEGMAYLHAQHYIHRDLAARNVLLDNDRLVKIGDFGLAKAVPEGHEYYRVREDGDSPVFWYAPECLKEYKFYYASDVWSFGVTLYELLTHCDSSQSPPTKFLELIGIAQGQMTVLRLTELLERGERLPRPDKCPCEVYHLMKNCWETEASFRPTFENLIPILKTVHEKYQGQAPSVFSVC
# assay comment: TYK2 MSD degradation in OCI-LY10 cells
# Format: cell-based
# measurement parameters: TYK2 degradation in OCI-LY10 cells, 4 to 24 hours incubation
# Procedure: Example 7. TYK2 MSD Degradation Degradation of TYK2 in cells was quantitatively measured using Meso Scale Discovery (MSD) technology. OCI-LY10 cells were seeded in 96-well plates with a density of 0.4 million cells per well in 100 μl fresh media. […] The assay plates were then incubated at room temperature for 1 hour, washed 3 times with 150 μl/well TB ST buffer, and 150 μl/well MSD reading buffer (MSD, R92TC-2) were added. The plates were then analyzed by an MSD reader. […]
measured metric: TYK2 MSD OCI-LY10 Dmax %

{"molecule": "CNc1cc(N2CCc3c(-c4cc(C)c(CN5CC6(CCN(C(=O)c7cc(C)c(Cl)c(N8CCC(=O)NC8=O)c7)CC6(F)F)C5)cn4)cccc32)nn2c(C(=O)N[C@@H]3C[C@@H]3F)cnc12 [I-958]", "result": "A (A (>90%))"}
{"molecule": "CNc1cc(N2CCc3c(CN4CC[C@@H](N5CCC6(CCN(C(=O)c7cc(N8CCC(=O)NC8=O)c(Cl)cn7)CC6)CC5)C(F)(F)C4)cc(F)cc32)nn2c(C(=O)N[C@@H]3CC[C@H]3OC)cnc12 [I-1147]", "result": "A (A (>90%))"}

// provenance: patent US20260125400A1
